# test: Plasma clearance in rat was determined upon i.v. administration
# Format: ADME, organism-based
# particulars: iv
reported_metric: clearance
The answer should read as a number with its unit following.

IN: Consider the compound shown here: CCCC(CCC)N1CCn2c(=O)n(-c3ccc(OC)cc3)c3nc(C)cc1c32 What is its recorded clearance?
OUT: 53.4 mL/min/kg

---

# test: Terminal half life in rat was determined upon intravenous administration
# particulars: in vivo
reported_metric: half-life (h)
Please reply with the bare figure in h and do not write the unit itself.

IN: // returns reported half-life for input CCCC(CCC)N1CCn2c(=O)n(-c3ccc(OC)cc3)c3nc(C)cc1c32
OUT: 1.6

---

The reader will find reported log10 of Ki values listed item by item below.
# experimental_target: Corticotropin-releasing factor receptor 1 (Homo sapiens)
# Sequence (P34998 whole entry): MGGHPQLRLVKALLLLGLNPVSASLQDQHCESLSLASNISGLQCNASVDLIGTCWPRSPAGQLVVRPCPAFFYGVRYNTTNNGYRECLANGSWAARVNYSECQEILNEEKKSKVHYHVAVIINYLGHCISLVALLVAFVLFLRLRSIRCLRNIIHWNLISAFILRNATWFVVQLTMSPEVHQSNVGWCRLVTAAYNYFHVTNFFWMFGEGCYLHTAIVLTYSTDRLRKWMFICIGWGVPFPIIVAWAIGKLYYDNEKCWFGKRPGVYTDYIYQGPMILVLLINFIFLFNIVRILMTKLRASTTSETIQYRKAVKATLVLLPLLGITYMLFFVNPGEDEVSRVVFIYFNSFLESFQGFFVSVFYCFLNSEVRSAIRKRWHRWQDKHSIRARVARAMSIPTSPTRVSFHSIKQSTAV
# log10 transformed; quantity=Ki; unit=nM

IN: log10 of Ki lookup needed for CCCC(CCC)N1CCn2c(=O)n(-c3ccc(C(F)(F)F)cc3)c3nc(C)cc1c32 , thanks.
OUT: 1.23

IN: Using the record for CCC(CC)N1CCn2c(=O)n(-c3ccc(C(F)(F)F)cc3)c3nc(C)cc1c32 , report its log10 of Ki.
OUT: 2.23

IN: Bench note: what log10 of Ki did CCCC(CCC)N1CCn2c(=O)n(-c3ccc(OC)cc3)c3nc(C)cc1c32 show?
OUT: 0.30

IN: Dear colleague, I am looking for the recorded log10 of Ki of the following molecule: CCCC(CCC)N1CCn2c(=O)n(-c3ccc(Cl)cc3Cl)c3nc(C)cc1c32
OUT: 0.71

IN: Endpoint output: log10 of Ki of CCC(CC)N1CCn2c(=O)n(-c3ccc(Cl)cc3)c3nc(C)cc1c32 . Value?
OUT: 1.76

IN: Need log10 of Ki of CCC(CC)N1CCn2c(=O)n(-c3ccc(OC)cc3C)c3nc(C)cc1c32 , thanks.
OUT: 1.30

IN: Look at this molecule and give its reported log10 of Ki. CCCC(CCC)N1CCn2c(=O)n(-c3ccc(S(C)(=O)=O)cc3)c3nc(C)cc1c32
OUT: 2.66

IN: Return reported log10 of Ki; argument: CCC(CC)N1CCn2c(=O)n(-c3ccc(OC)cc3)c3nc(C)cc1c32
OUT: 0.90

IN: Reported log10 of Ki for CCCC(CCC)N1CCn2c(=O)n(-c3cccc(OC)c3)c3nc(C)cc1c32 : what is it?
OUT: 2.11
